Biological target: Precursor of the S-layer proteins (Clostridium difficile (strain 630)) (UniProt Q183M8)
Sequence (Q183M8 as listed by the source): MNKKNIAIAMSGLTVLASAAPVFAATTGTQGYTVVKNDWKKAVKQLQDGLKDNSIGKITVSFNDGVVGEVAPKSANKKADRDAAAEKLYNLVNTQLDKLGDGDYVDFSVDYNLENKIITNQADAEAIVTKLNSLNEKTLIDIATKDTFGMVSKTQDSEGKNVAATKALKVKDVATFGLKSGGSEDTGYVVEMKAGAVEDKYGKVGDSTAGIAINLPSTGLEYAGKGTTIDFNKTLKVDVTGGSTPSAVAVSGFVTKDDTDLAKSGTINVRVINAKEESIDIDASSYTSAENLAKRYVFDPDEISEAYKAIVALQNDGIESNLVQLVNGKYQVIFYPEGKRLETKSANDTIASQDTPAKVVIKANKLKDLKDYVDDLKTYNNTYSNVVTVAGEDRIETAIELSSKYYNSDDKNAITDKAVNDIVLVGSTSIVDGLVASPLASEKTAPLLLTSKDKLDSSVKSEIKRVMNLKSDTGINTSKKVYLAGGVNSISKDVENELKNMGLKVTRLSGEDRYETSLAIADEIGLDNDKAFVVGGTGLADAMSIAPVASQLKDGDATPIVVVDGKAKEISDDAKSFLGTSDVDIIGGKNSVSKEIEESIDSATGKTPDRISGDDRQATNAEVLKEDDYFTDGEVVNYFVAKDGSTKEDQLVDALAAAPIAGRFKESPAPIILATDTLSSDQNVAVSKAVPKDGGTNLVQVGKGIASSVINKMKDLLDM
Assay: Inhibition of Clostridium difficile 630 S-layer processing of slpA at 100 uM by Western blot analysis
Settings: Clostridioides difficile
The source made the active and inactive calls. No cut-off for these calls is given here. Where a SMILES comes first, the peptide text is derived from it. The star is where a group is joined. X1 = CCOC(=O)/C=C/[C@H](CO)N*
Select the correct class. Options are class 1 = active, class 0 = inactive and nothing else.

IN: Which outcome was assigned to C[C@H](NC(=O)CF)C(=O)NCCOCCOCCOCCNC(=O)CCCC[C@@H]1SC[C@@H]2NC(=O)N[C@@H]21 in this test?
OUT: class 0

IN: Which outcome was assigned to CCOC(=O)/C=C/C(=O)N[C@@H](CO)C(=O)NCCOCCOCCOCCNC(=O)CCCC[C@@H]1SC[C@@H]2NC(=O)N[C@@H]21 in this test?
OUT: class 0

IN: Which outcome was assigned to CCOC(=O)/C=C/[C@H](CO)NC(=O)[C@H](CCCCN)NC(=O)[C@@H](NC(=O)[C@H](CCC(=O)O)NC(=O)[C@H](CC(C)C)NC(C)=O)[C@@H](C)O (Ac-LETK-X1) in this test?
OUT: class 1

IN: Which outcome was assigned to CCOC(=O)/C=C/C(=O)N[C@@H](CCCNC(=N)N)C(=O)NCCOCCOCCOCCNC(=O)CCCC[C@@H]1SC[C@@H]2NC(=O)N[C@@H]21 in this test?
OUT: class 0

IN: Which outcome was assigned to N=C(N)NCCC[C@H](NC(=O)CCl)C(=O)NCCOCCOCCOCCNC(=O)CCCC[C@@H]1SC[C@@H]2NC(=O)N[C@@H]21 in this test?
OUT: class 1

IN: Which outcome was assigned to O=C(CCCC[C@@H]1SC[C@@H]2NC(=O)N[C@@H]21)NCCOCCOCCOCCNC(=O)[C@H](CO)NC(=O)CF in this test?
OUT: class 0

IN: Which outcome was assigned to CCOC(=O)/C=C/[C@H](CO)NC(=O)[C@H](Cc1ccc(O)cc1)NC(=O)[C@H](CCCCNC(=O)CCCC[C@@H]1SC[C@@H]2NC(=O)N[C@@H]21)NC(C)=O in this test?
OUT: class 1

IN: Which outcome was assigned to CCOC(=O)/C=C/[C@H](CO)NC(=O)[C@H](CC(C)C)NC(=O)[C@H](CCCCNC(=O)CCCC[C@@H]1SC[C@@H]2NC(=O)N[C@@H]21)NC(C)=O in this test?
OUT: class 1

IN: Which outcome was assigned to CCOC(=O)/C=C/C(=O)N[C@@H](CC(C)C)C(=O)N[C@@H](CCCNC(=N)N)C(=O)NCCOCCOCCOCCNC(=O)CCCC[C@@H]1SC[C@@H]2NC(=O)N[C@@H]21 in this test?
OUT: class 0

IN: Which outcome was assigned to CC(C)C[C@H](NC(=O)CCl)C(=O)N[C@@H](CCCNC(=N)N)C(=O)NCCOCCOCCOCCNC(=O)CCCC[C@@H]1SC[C@@H]2NC(=O)N[C@@H]21 in this test?
OUT: class 1

IN: Which outcome was assigned to N=C(N)NCCC[C@H](NC(=O)CF)C(=O)NCCOCCOCCOCCNC(=O)CCCC[C@@H]1SC[C@@H]2NC(=O)N[C@@H]21 in this test?
OUT: class 0

IN: Which outcome was assigned to CC(C)C[C@H](NC(=O)CF)C(=O)N[C@@H](CCCNC(=N)N)C(=O)NCCOCCOCCOCCNC(=O)CCCC[C@@H]1SC[C@@H]2NC(=O)N[C@@H]21 in this test?
OUT: class 0

IN: Which outcome was assigned to CCOC(=O)/C=C/C(=O)N[C@@H](C)C(=O)NCCOCCOCCOCCNC(=O)CCCC[C@@H]1SC[C@@H]2NC(=O)N[C@@H]21 in this test?
OUT: class 0

IN: Which outcome was assigned to C[C@H](NC(=O)CCl)C(=O)NCCOCCOCCOCCNC(=O)CCCC[C@@H]1SC[C@@H]2NC(=O)N[C@@H]21 in this test?
OUT: class 1

IN: Which outcome was assigned to O=C(CCCC[C@@H]1SC[C@@H]2NC(=O)N[C@@H]21)NCCOCCOCCOCCNC(=O)[C@H](CO)NC(=O)CCl in this test?
OUT: class 1
